# assayComment: Half life in HIV-infected patient at 100 mg, qd co-administered with 100 mg minocycline, bid for 15 days
# Type: ADME, organism-based
# runParameters: human, in vivo
parameterMeasured: half-life (h)
Give the value, in units of h, as a plain number.

(Q) # lookup: half-life of CC(C)c1nc(CN(C)C(=O)N[C@H](C(=O)N[C@@H](Cc2ccccc2)C[C@H](O)[C@H](Cc2ccccc2)NC(=O)OCc2cncs2)C(C)C)cs1
(A) 6.64

* * *

# assayComment: AUC (0 to 24 hrs) in HIV-infected patient at 300 mg, qd
# Assay type: ADME, organism-based
# Design: time < 24 hr, dose 300 mg
# runParameters: human, plasma
parameterMeasured: AUC at 24 h
Hey, just the number and the unit after it is fine.

(Q) # lookup: AUC at 24 h of COC(=O)N[C@H](C(=O)N[C@@H](Cc1ccccc1)[C@@H](O)CN(Cc1ccc(-c2ccccn2)cc1)NC(=O)[C@@H](NC(=O)OC)C(C)(C)C)C(C)(C)C [ATAZANAVIR]
(A) 53500 ng·h/mL
